Tested on: Liver
Assay Info: Antioxidant activity in rat liver homogenates assessed as inhibition of lipid peroxidation by measuring formation of thiobarbituric acid-reactive substance after 30 mins
Assay type: functional, tissue-based
Measurement Parameters: 0.5 h
Measured Attribute: pIC50
Reminder that pIC50 is minus the log10 of a molar concentration.

Look up pIC50 of CC(C)C/C(=C\c1ccc(O)c(O)c1)C(=O)N[C@@H](Cc1ccccc1)C(=O)C(=O)NCc1ccccc1 (stereo in doubt) and report it.
5.22

Provide pIC50 value for the following compound: CCC/C(=C\c1ccc(O)c(O)c1)C(=O)N[C@@H](Cc1ccccc1)C(=O)C(=O)NCc1ccccc1 (stereo in doubt)
5.21

Please give measured pIC50 of the following entry: CCC/C(=C\c1ccc(O)c(O)c1)C(=O)N[C@@H](Cc1ccccc1)C(=O)C(=O)NCCc1ccc(OC)cc1 (stereo in doubt)
5.24

Please report pIC50 for the following compound: CCCC/C(=C\c1ccc(O)c(O)c1)C(=O)N[C@@H](Cc1ccccc1)C(=O)C(=O)NCCc1ccc(OC)cc1 (stereo in doubt)
5.23
